Measured values drawn from ChEMBL document CHEMBL3994625 for this set.

# TEST DETAILS: Effective permeability of the compound at pH 7.4 at 200 uM after 4 hrs by PAMPA-BBB assay
# Format: physicochemical
# ASSAY CONTEXT: read-out: Peff
Rule for this label: Met means Papp at 4 h, 200 µM is less than 20 ×10⁻⁶ cm/s; Not met means Papp at 4 h, 200 µM is at least 20 ×10⁻⁶ cm/s.

[
  {
    "GIVEN SMILES": "Cn1ncc2cc(C(=O)Nc3ccc(Cl)c(Cl)c3)ccc21",
    "LABEL CLASS": "Not met"
  }
]

Now look at this one.
input: Say whether its Papp at 4 h, 200 µM is strictly beneath 20 ×10⁻⁶ cm/s. Entry: Cn1cc2cc(C(=O)Nc3ccc(F)c(Cl)c3)ccc2n1
output: Met
